B1: HHH_rd1_0493 (parent)
chain: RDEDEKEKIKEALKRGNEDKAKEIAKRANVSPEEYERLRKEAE

Variants of: B1
Assay: folding stability dG (cDNA display proteolysis); higher = more stable
Conditions: PBS, room temperature
Reported folding stability dG values for a set of variants
# output: bare number, implied unit kcal/mol

The cases that follow already have their folding stability dG on record.
RDEDEKEKIKEALKRGNEDKAKEIAKRANVSPVEYERLRKEAE [E33V]	2.22
RDEDEKEKIKEALKRGNEDKAKEIAKRANVSPEEYCRLRKEAE [E36C]	2.86
RDEDEKEKIKEALKRGNEKKAKEIAKRANVSPEEYERLRKEAE [D19K]	3.07

Exercise: Any idea what its folding stability dG is? The variant is RDEREKEKIKEALKRGNEDKAKEIAKRANVSPEEYERLRKEAE [D4R]
Solution: 2.88

Exercise: Would you kindly repeat that for RDEDEKEKIKEALKRGNEDKAKELAKRANVSPEEYERLRKEAE [I24L] ?
Solution: 2.8

Exercise: Would you kindly repeat that for RDEDEKEKIKEALKRGNEDKAKEIAKRANVSPGEYERLRKEAE [E33G] ?
Solution: 2.25

Exercise: Would you kindly repeat that for RDEDEKEKIKEAQKRGNEDKAKEIAKRANVSPEEYERLRKEAE [L13Q] ?
Solution: 0.615
